PROCEDURE_DETAILS: Plasma protein binding of fampridine
READOUT_KIND: fraction unbound

Entry Nc1ccncc1 , fraction unbound reported as 0.97 to 0.99

====

PROCEDURE_DETAILS: Rat i.v. and p.o. pharmacokinetics 2 mg/kg (M 2001-03)
COND: male, rat, plasma, oral, 2 mg/kg
READOUT_KIND: bioavailability

Entry Nc1ccncc1 [4-aminopyridine] , bioavailability reported as ~66.5%

====

PROCEDURE_DETAILS: Rat i.v. and p.o. pharmacokinetics 2 mg/kg (M 2001-03)
COND: female, rat, plasma, oral, 2 mg/kg
READOUT_KIND: bioavailability

Entry Nc1ccncc1 [4-aminopyridine] , bioavailability reported as ~55%

====

PROCEDURE_DETAILS: In situ absorption study (stomach, small intestine)
Format: in vivo
COND: small intestine
READOUT_KIND: half-life
Note to self: number, then unit, no commentary.

Entry Nc1ccncc1 , half-life reported as 40.2 min
